Assay: NOD1 signaling inhibitors, primary screen, cell-based, luminescence, uHTS (AID 1578);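 further: HEK-293T reporter cells stimulated with the NOD1 agonist gamma-tri-DAP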
Settings: NOD1-driven NF-kB luciferase reporter cells, at 4 µM, active compounds read high
Out of some 290,000 compounds screened, about 3,000 (1%) were called active. The sample holds actives, similar compounds and a random draw of the others, so the mix is not that of the screen.
reported.property: inhibition

// known answers, use as guide
Nn1cc(-c2ccccc2)nc1SCC(=O)Nc1cccc(S(N)(=O)=O)c1 = 3.3% (inactive)
COc1ccc(NCCC(O)c2ccc(Cl)cc2)cc1 (stereo not given) = -11.5% (inactive)
Cc1cc(C(=O)N2CCCC(CCC(=O)N3CCN(c4ccccn4)CC3)C2)c(C)o1 (stereo not given) = -25.2% (inactive)

For this molecule ( COc1ccc(-c2noc(C3CCCN(C(=O)c4cccc(F)c4)C3)n2)cc1 (stereo not given) ), measured inhibition is -12.2% (inactive)

inhibition reported for this molecule C/C(=N\NC(=O)c1ccncc1)c1ccc(NC(=O)c2ccc(Cl)cc2)cc1 : 7% (inactive)

---

Reported inhibition values follow for various molecules
Assay: NOD1 signaling inhibitors, primary screen, cell-based, luminescence, uHTS (AID 1578);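 further: HEK-293T reporter cells stimulated with the NOD1 agonist gamma-tri-DAP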
Conditions: NOD1-driven NF-kB luciferase reporter cells, at 4 µM, active compounds read high
The whole screen tested about 290,000 compounds, of which about 3,000 (1%) were called active. For the sample, actives were picked, then their nearest neighbours and some compounds at random.
Reply with just the number (in %).

# example entries with known answers
O=C(NNC(=O)c1ccccn1)c1cccc([N+](=O)[O-])c1 = -43.1
CCOC(=O)CCNC(=O)N1CCCC(Cc2ccccc2)(C(=O)OCC)C1 (stereo not drawn) = -26.2

The recorded inhibition for entry O=C(COc1ccc(Cl)cc1)N1CCN(C(=O)c2ccccc2F)CC1 equals 27.3

---

Assay: NOD1 signaling inhibitors, primary screen, cell-based, luminescence, uHTS (AID 1578);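 further: HEK-293T reporter cells stimulated with the NOD1 agonist gamma-tri-DAP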
Conditions: NOD1-driven NF-kB luciferase reporter cells, at 4 µM, active compounds read high
Among all 290,000 compounds or so, about 3,000 (1%) were called active. Only a selection was taken, and actives are over-represented in it overall.
Ranges used to classify inhibition: one: < -10%; two: ≥ -10% and < 10%; three: ≥ 10%

CC(C)(C)n1ncc(Oc2ccccc2[N+](=O)[O-])c(Cl)c1=O = three
O=C(CNS(=O)(=O)c1cccc2nsnc12)NC1CCCCC1 = two

Which inhibition category applies to CCOC(=O)Cc1csc(NC(=O)c2sc3nc4cc(C)ccc4cc3c2N)n1 here? one

Would you mind sorting COc1ccc(COc2cc(-c3cccc(OC)c3)nc3ccc(NC(=O)c4cccnc4)cc23)cc1 into the appropriate category? three

Pick a category. Item: CCc1ccc(/C=C/c2c[nH]c3ccccc23)[n+](CC)c1 two

Hello team, could you let me know which band the following compound falls into: O=c1cnc2ccccc2n1Cc1ccccc1C(F)(F)F one

Tag the class for O=C(NCC(O)c1ccc([N+](=O)[O-])cc1)Nc1ccccc1 (stereo not given) two

Which inhibition category applies to N#Cc1cc([N+](=O)[O-])ccc1NC(=O)COC(=O)CC1CCCC1 here? one

Pick a category. Item: O=C(N/N=C/c1ccccc1Br)C1CC1 one

The entry to classify is Cc1ccc(C2C(=O)c3ccccc3C2=O)cc1 ; which class holds it? one

Using the reported inhibition, which band applies to Cc1sc(Cc2nc(O)cs2)nc1-c1ccccc1 ? three

Class? Entry: Cc1cc(C)nc(/N=C2/NC(=O)CS2)n1 three

# classify by inhibition band: COc1ccc(/C=C(/NC(=O)c2ccco2)C(=O)N2CCCC2=O)cc1 one

Using the reported inhibition, which band applies to O=C(Nc1ccccc1C(F)(F)F)N1CCCCCC1 ? one

Kindly identify the class of COc1ccc(COc2cc(-c3cccc(OC)c3)nc3ccc(NC(=O)c4ccc(OC)cc4)cc23)cc1 . three

State the band of O=C(C#Cc1ccccc1)c1ccc([N+](=O)[O-])cc1 three

In plain terms, what class is O=C(NCc1ccc(F)cc1)N1CCN(S(=O)(=O)c2ccccc2F)CC1 ? one

For this compound, which bin applies? O=C(COC(=O)c1ccc(S(=O)(=O)N2CCc3ccccc3C2)cc1)NC1CCS(=O)(=O)C1 (stereo not given) two

Category lookup for the compound COCCn1c(=S)[nH]c2cc(C(=O)N3CCN(Cc4ccc5c(c4)OCO5)CC3)ccc2c1=O two

Consider CCN(CC)CCCNC(=O)C1c2ccccc2C(=O)N(C)C1c1ccc(OC)cc1 (stereo not given) . To which inhibition class does it belong? three

---

Assay: NOD1 signaling inhibitors, primary screen, cell-based, luminescence, uHTS (AID 1578);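 further: HEK-293T reporter cells stimulated with the NOD1 agonist gamma-tri-DAP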
Settings: NOD1-driven NF-kB luciferase reporter cells, at 4 µM, active compounds read high
Out of some 290,000 compounds screened, about 3,000 (1%) were called active. The full list was thinned out, with actives kept by preference.
reported.property: inhibition (%)
Entry rule: numbers only, all in %.

Guide cases for inhibition, answers given:
COc1cccc(OCC(=O)Nc2ccncc2)c1 = -11.4
COc1ccc(C(=O)Nc2ccc(CN3CCCCC3)cc2)cc1 = -37.1
O=C(Nc1ccc(S(=O)(=O)N2CCCC2)cc1)c1ccc(CN2CCOCC2)cc1 = 44.6
COc1cc(OC)cc(C(=O)NNC(=S)NC2CC2)c1 = -35.8

Quick note, inhibition for c1ccc2c(c1)CCN(c1ncnc3nc[nH]c13)C2 landed at -40.8

---

Test: NOD1 signaling inhibitors, primary screen, cell-based, luminescence, uHTS (AID 1578);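 further: HEK-293T reporter cells stimulated with the NOD1 agonist gamma-tri-DAP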
Settings: NOD1-driven NF-kB luciferase reporter cells, at 4 µM, active compounds read high
Among all 290,000 compounds or so, about 3,000 (1%) were called active. The sample holds actives, similar compounds and a random draw of the others, so the mix is not that of the screen.
reported.property: inhibition (%)
Give the value, in units of %, as a plain number.

O=C(/C=C/c1ccc([N+](=O)[O-])cc1)Nc1ncc([N+](=O)[O-])s1 = 54.9

Now for another entry.
The molecule identified as O=C(/C=C/c1ccc([N+](=O)[O-])cc1)Nc1cccnc1 registered its inhibition at -4.6

---

Assay: NOD1 signaling inhibitors, primary screen, cell-based, luminescence, uHTS (AID 1578);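 further: HEK-293T reporter cells stimulated with the NOD1 agonist gamma-tri-DAP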
Details: NOD1-driven NF-kB luciferase reporter cells, at 4 µM
Hit rate of the full screen: of about 290,000 compounds, about 3,000 (1%) were called active. Cut-off read from the data, not from the text of the source: active = inhibition mostly above about 36% (no sharp cut-off); inactive = mostly below about 34%. Only a selection was taken, and actives are over-represented in it overall.
Just give me one of these, please: 1 (active), -1 (inactive)

# example entries with known answers
COc1ccc(/C=C2\SC(=S)N(CCC(=O)N3CCCCC3)C2=O)cc1 = -1
CS(=O)(=O)N(CCC#N)Cc1ccc(/C=C2\C(=O)Nc3ccccc32)o1 = 1
COc1ccc(C(O)(C(C)C)C(CN2CCOCC2)c2ccccc2)cc1 (centres undefined) = -1

Shifting focus to the molecule that follows.
Tell me the assay call for Cn1c(SCC(=O)NCCc2ccccc2)nnc1C1CCCCC1 please. -1

---

Test: NOD1 signaling inhibitors, primary screen, cell-based, luminescence, uHTS (AID 1578);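 further: HEK-293T reporter cells stimulated with the NOD1 agonist gamma-tri-DAP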
Conditions: NOD1-driven NF-kB luciferase reporter cells, at 4 µM, active compounds read high
Screen size: about 290,000 compounds; about 3,000 (1%) were called active. What follows is part of a selection rich in actives, with near analogues and random picks from the rest.
Each item that follows carries a reported inhibition.
Number only, in %; omit the unit.

Take a look at these entries with their results.
CCC1Oc2ccc(C)cc2N(CC(=O)N(Cc2cccnc2)Cc2ccc(C)o2)C1=O (stereo not drawn) = -12.7
Cc1c(C(=O)NCCSCc2cccc(C(F)(F)F)c2)cnn1-c1ccc(F)cc1 = -3.5
CCN(CC)CCNC(CC(=O)Nc1ccc(Cl)cc1Cl)C(=O)O (stereo not drawn) = -7
CCC1Oc2ccc(C)cc2N(CC(=O)N(Cc2ccncc2)Cc2ccco2)C1=O (stereo not drawn) = -36.7
CNC(=O)Nc1cccc(C(F)(F)F)c1 = -23
O=C(O)c1cccc(CN2C(=O)S/C(=C/c3ccccc3[N+](=O)[O-])C2=O)c1 = 3.9
CCC1Oc2ccc(C)cc2N(CC(=O)N(Cc2cccnc2)Cc2cccc(F)c2)C1=O (stereo not drawn) = 34.6
CCC(=O)NC(=S)Nc1cccc(Cl)c1N1CCCC1 = 55.9

Reported inhibition for Cc1ccc(NC(=O)CCn2cccc2)cc1 was 3.6

For reference, reported inhibition for COc1ccc(O)c(/C=C2/SC(=S)N(Cc3ccccc3)C2=O)c1 stands at -3.5

inhibition in this record for CN(C)S(=O)(=O)Oc1ccccc1C(=O)Nc1cccc(C(F)(F)F)c1 : -19.2

Data point: CCOC(=O)CN1C(=O)S/C(=C/c2ccc(O)c([N+](=O)[O-])c2)C1=O ; inhibition = -4.5

In plain terms, O=C(Nc1ccc(C(=O)O)cc1)Nc1cccc([N+](=O)[O-])c1 has a documented inhibition of -12.4

---

Test: NOD1 signaling inhibitors, primary screen, cell-based, luminescence, uHTS (AID 1578);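 further: HEK-293T reporter cells stimulated with the NOD1 agonist gamma-tri-DAP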
Details: NOD1-driven NF-kB luciferase reporter cells, at 4 µM
The whole screen tested about 290,000 compounds, of which about 3,000 (1%) were called active. Rule as the data show it: active = inhibition mostly above about 36% (no sharp cut-off); inactive = mostly below about 34%. The entries come from a sample that favours actives as a whole.
Answer with one of the outcomes 1 for active, -1 for inactive

CCN1/C(=C/C=C/C=C/c2sc3ccccc3[n+]2CC)Sc2ccccc21 = -1
N=c1c2c(n(Cc3ccc(Br)cc3)c3c1CCC3)CCCC2 = -1
COc1ccccc1NC(=O)C(=O)N/N=C/c1cccs1 = -1
COc1ccc(/C=C/C(=O)Nc2cc(C)nn2-c2nc3ccccc3[nH]2)cc1 = -1
Cc1cc2oc(=O)cc(Cn3ncc(Cl)c(Cl)c3=O)c2cc1Cl = 1
O=C(NCc1ccccc1)c1cnsn1 = -1
Cc1cc(C)c2nc3nc(C)c(C)cc3c(N)c2c1 = -1
CN(CCO)S(=O)(=O)c1ccc2c(c1)C(=NO)c1cc(S(=O)(=O)N(C)CCO)ccc1-2 = -1

Hi, sorry to bother you, what did the test record for Cc1cc(NC(=O)c2ccccc2)n(-c2nc3ccccc3[nH]2)n1 ? -1

Recorded test call requested for COC(=O)C1=C(CSc2nc3ccccc3s2)NC(=O)NC1c1ccc(F)cc1 (stereo unspecified) -1

Please indicate how the test categorized COc1ccccc1/C=C/CN1CC(C)OC(C)C1 (stereo unspecified) . -1

Tell me the assay call for O=C1C2CCCN2C(c2ccc(F)cc2)N1c1cccc(Cl)c1 (stereo unspecified) please. -1

Recorded call for Cc1cc(C)c2nc3nc(C)cc(C)c3c(N)c2c1 ? -1

Status in this test for CCOC(=O)C1=C(CSc2nc3ccccc3s2)NC(=O)NC1c1ccc(OC)cc1 (stereo unspecified) ? 1

Dear all, I need the recorded test outcome for Cc1cc(C)c2nc(C(F)(F)F)c(C#N)c(N)c2c1 , thank you. 1

Record request — test call for Cc1cc(NC(=O)CN(C)CCOc2ccccc2)ccc1Br -1
